The measured values listed here are drawn from ChEMBL document CHEMBL3044531.

Tested on: Botrytis cinerea
Test: Antifungal activity against Botryotinia fuckeliana assessed as radial growth inhibition at 100 ug/mL measured after 6 days
Format: functional
Settings: 144 h
Kind request: treat 40% as inclusive, so inhibition at 100 µg/mL at 40% or higher is class 1, anything lower is class 0.

[
  {
    "COMPOUND": "O=C(NN1CCCCC1)c1ccccc1F",
    "CATEGORY": "class 1"
  },
  {
    "COMPOUND": "CN(C)NC(=O)c1ccccc1 [N',N'-DIMETHYLBENZOHYDRAZIDE]",
    "CATEGORY": "class 1"
  },
  {
    "COMPOUND": "O=C(NN(Cc1ccccc1)Cc1ccccc1)c1ccccc1 [N',N'-DIBENZYLBENZOHYDRAZIDE]",
    "CATEGORY": "class 1"
  },
  {
    "COMPOUND": "O=C(NN(Cc1ccccc1)Cc1ccccc1)c1ccccc1I",
    "CATEGORY": "class 1"
  },
  {
    "COMPOUND": "Cc1ccccc1C(=O)NN(Cc1ccccc1)Cc1ccccc1",
    "CATEGORY": "class 1"
  },
  {
    "COMPOUND": "O=C(NN(Cc1ccccc1)Cc1ccccc1)c1ccccc1Cl",
    "CATEGORY": "class 1"
  },
  {
    "COMPOUND": "CN(C)NC(=O)c1ccccc1I",
    "CATEGORY": "class 0"
  },
  {
    "COMPOUND": "O=C(NN1CCCCC1)c1ccccc1I",
    "CATEGORY": "class 1"
  },
  {
    "COMPOUND": "COc1ccccc1C(=O)NN1CCCCC1",
    "CATEGORY": "class 1"
  },
  {
    "COMPOUND": "CN(C)NC(=O)c1ccccc1F",
    "CATEGORY": "class 0"
  },
  {
    "COMPOUND": "O=C(NN1Cc2ccccc2C1)c1ccccc1F",
    "CATEGORY": "class 1"
  },
  {
    "COMPOUND": "O=C(NN1CCCCC1)c1ccccc1 [N-PIPERIDINOBENZAMIDE]",
    "CATEGORY": "class 1"
  },
  {
    "COMPOUND": "CN(C)NC(=O)c1ccccc1Cl",
    "CATEGORY": "class 0"
  }
]
